Every entry's value here was drawn from patent US7858635B2.

# target: M4 muscarinic receptor (Homo sapiens)
# Construct: expressed in transfected cells; host or cells: CHO cells (M4-CHO, under puromycin, zeocin and blasticidin selection)
# Sequence (P08173 whole entry): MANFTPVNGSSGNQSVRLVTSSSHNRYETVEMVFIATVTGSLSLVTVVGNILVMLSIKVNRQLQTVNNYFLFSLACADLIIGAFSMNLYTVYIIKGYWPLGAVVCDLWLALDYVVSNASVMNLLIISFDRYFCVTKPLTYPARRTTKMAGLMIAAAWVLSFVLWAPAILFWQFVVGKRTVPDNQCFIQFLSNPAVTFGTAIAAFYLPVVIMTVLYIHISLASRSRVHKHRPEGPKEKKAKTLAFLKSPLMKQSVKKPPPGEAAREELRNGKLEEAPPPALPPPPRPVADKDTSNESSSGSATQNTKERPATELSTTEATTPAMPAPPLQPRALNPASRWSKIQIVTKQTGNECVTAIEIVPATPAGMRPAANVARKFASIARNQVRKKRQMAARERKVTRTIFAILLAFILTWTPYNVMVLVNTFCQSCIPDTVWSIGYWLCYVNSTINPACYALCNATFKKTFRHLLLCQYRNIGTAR
# measurement.description: Functional mobilization of intracellular calcium (FLIPR, Fluo-3), M4-CHO cells
# Assay type: cell-based
# experimental.context: compound nos. 1-454; 100% efficacy is the maximum response obtained with the Carbachol control; read-out: M4 Efficacy
Each record here notes measured Emax.

>  <compound>
COC(=O)N1C2CCC1CC(N1CCC3(CC1)CN(S(C)(=O)=O)c1ccc(F)cc13)C2 (stereo not shown)

>  <target>
M4 muscarinic receptor (Homo sapiens)

>  <Emax>
< 55%

$$$$
>  <compound>
c1ccc2c(c1)NCC21CCN(C2CCC3CCC2C3)CC1 (stereo not shown)

>  <target>
M4 muscarinic receptor (Homo sapiens)

>  <Emax>
55 to 70%

$$$$
>  <compound>
CCOC(=O)N1CCC(CN2CCC3(CC2)C(=O)N(C)c2ccccc23)CC1

>  <target>
M4 muscarinic receptor (Homo sapiens)

>  <Emax>
< 55%

$$$$
>  <compound>
COC(=O)N1CC2(CCN(C3CC4CCC(C3)N4C(=O)O[C@@H]3CCOC3)CC2)c2cc(F)ccc21 (stereo partly shown)

>  <target>
M4 muscarinic receptor (Homo sapiens)

>  <Emax>
55 to 70%

$$$$
>  <compound>
COCCOC(=O)N1CCC(CN2CCC3(CC2)CN(C(C)=O)c2ccc(C)cc23)CC1

>  <target>
M4 muscarinic receptor (Homo sapiens)

>  <Emax>
< 55%

$$$$
>  <compound>
CCOC(=O)N1CCC(CN2CCC3(CC2)CN(C(C)=O)c2c(F)cccc23)CC1

>  <target>
M4 muscarinic receptor (Homo sapiens)

>  <Emax>
< 55%

$$$$
>  <compound>
O=C(OC1CCCC1)N1C2CCC1CC(N1CCC3(CC1)C(=O)Nc1ccccc13)C2 (stereo not shown)

>  <target>
M4 muscarinic receptor (Homo sapiens)

>  <Emax>
< 55%

$$$$
>  <compound>
CCOC(=O)N1C2CCC1CC(N1CCC3(CC1)CN(C(=O)C1CCC1)c1ccc(F)cc13)C2 (stereo not shown)

>  <target>
M4 muscarinic receptor (Homo sapiens)

>  <Emax>
55 to 70%

$$$$
>  <compound>
CCOC(=O)N1C2CCC1CC(N1CCC3(CC1)CN(C(=O)Nc1c(C)noc1C)c1ccc(F)cc13)C2 (stereo not shown)

>  <target>
M4 muscarinic receptor (Homo sapiens)

>  <Emax>
< 55%

$$$$
>  <compound>
CC(=O)N1CC2(CCN(C3CCN(C(=O)O[C@H]4CCOC4)CC3)CC2)c2cc(C)ccc21

>  <target>
M4 muscarinic receptor (Homo sapiens)

>  <Emax>
< 55%

$$$$
>  <compound>
CCCOC(=O)N1CC2(CCN(C3CCN(C(=O)OCC)CC3)CC2)c2cc(F)ccc21

>  <target>
M4 muscarinic receptor (Homo sapiens)

>  <Emax>
< 55%

$$$$
>  <compound>
CCOC(=O)N1CCC(N2CCC3(CC2)CN(C(=O)N(C)C)c2ccc(F)cc23)CC1

>  <target>
M4 muscarinic receptor (Homo sapiens)

>  <Emax>
> 70%

$$$$
>  <compound>
CCOC(=O)N1C2CCC1CC(N1CCC3(CC1)CN(S(C)(=O)=O)c1ccc(F)cc13)C2 (stereo not shown)

>  <target>
M4 muscarinic receptor (Homo sapiens)

>  <Emax>
< 55%

$$$$
>  <compound>
CCON=C1CCC(N2CCC3(CC2)CN(C(C)=O)c2ccc(F)cc23)CC1 (stereo not shown)

>  <target>
M4 muscarinic receptor (Homo sapiens)

>  <Emax>
< 55%

$$$$
>  <compound>
C1=C[C@H]2C[C@H]1C[C@@H]2CN1CCC2(CCc3ccccc32)CC1

>  <target>
M4 muscarinic receptor (Homo sapiens)

>  <Emax>
< 55%

$$$$
>  <compound>
CCOC(=O)N1CCC(N2CCC3(CC2)CN(C(=O)c2cccc(OC)c2)c2ccc(F)cc23)CC1

>  <target>
M4 muscarinic receptor (Homo sapiens)

>  <Emax>
55 to 70%

$$$$
